B1: TPR t1 (parent)
chain: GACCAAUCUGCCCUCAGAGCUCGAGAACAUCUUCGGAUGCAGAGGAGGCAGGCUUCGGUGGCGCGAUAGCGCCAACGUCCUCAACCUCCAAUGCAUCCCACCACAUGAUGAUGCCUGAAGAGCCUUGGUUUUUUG

Variants of: B1
assay remarks: polymerase ribozyme fitness, log enrichment relative to wild type (log ratio); higher = more active; in vitro selection for triplet polymerase activity
Grouping by measured polymerase ribozyme fitness (log ratio) is done with the following cut points: range 1 = under -4, range 2 = from -4 up to -2, range 3 = -2 and over

In: Categorize the following entry: C13U U33G G69U C104G G120A U125C
Out: range 1
